Overview of reported interaction score across a group of binders:
Target: T1, O3
T1 chain: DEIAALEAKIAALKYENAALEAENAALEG
Experiment: two-hybrid library CCNG1;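 also: natural log of median RNA to DNA barcode read ratio; higher means stronger binding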
Quick one: just the number, no unit, thanks!

Please review the entries below; each comes with its answer.
[
  {
    "binder": "DKIAALKAKNAALKYEIAALEAKNAALKG [O16]",
    "recordedNumber": -1.85
  },
  {
    "binder": "DEIAQLEQKIAELKQENAELEWKIAQLKQ [4H342-bA]",
    "recordedNumber": -1.6
  },
  {
    "binder": "DEIAALEAKIAALKYKNAALKAKNAALKG [O12]",
    "recordedNumber": 0.318
  }
]

Given the binder DKIAALKAEIAALEYENAALEAENAALEG [O11] , what is its reported interaction score? -1.74

// next record DKNAALKAENAALEYKIAALKAKIAALKG [O10] -1.83

// next record DENAALEAEIAALEYENAALEAKIAALKG [O14] -1.94

// next record DKNAALKAKIAALKYKNAALKAEIAALEG [O13] -2.26
